src = patent US8927500B2

Test: Circular dichroism (CD) analysis of alpha-helicity
Type: physicochemical
Details: benign CD buffer pH 2, 0% TFE, 222 nm, 4° C.
Where a SMILES comes first, the peptide text is derived from it. Bridges are numbered along the chain shown (N, C = ends). [ ]: non-standard residue; d: D form. R8 = C=CCCCCCC[C@@](C)(N)C(=O)O; S5 = C=CCCC[C@](C)(N)C(=O)O; Nle = CCCC[C@H](N)C(=O)O
measurement-label: Molar Ellipticity Benign (222 in 0% TFE) (deg cm2 dmol-1)
Please state the figure in deg cm2 dmol-1; there is no need to write the unit.

Example compounds with recorded Molar Ellipticity Benign (222 in 0% TFE):
# get_value(readout='Molar Ellipticity Benign (222 in 0% TFE)', item= CCCC[C@H](NC(=O)[C@H](C)NC(=O)[C@H](C)NC(=O)[C@]1(C)CCC/C=C/CCCCCC[C@@](C)(NC(=O)[C@H](Cc2ccccc2)NC(=O)[C@@H](NC(=O)[C@H](CC(C)C)NC(C)=O)[C@@H](C)O)C(=O)N[C@@H](C)C(=O)N[C@@H](Cc2ccc(O)cc2)C(=O)N[C@@H](Cc2c[nH]c3ccccc23)C(=O)N[C@@H](C)C(=O)N[C@@H](CCC(N)=O)C(=O)N[C@@H](CC(C)C)C(=O)N1)C(=O)N[C@@H](C)C(N)=O )
−102.6

Then what about the compound CCCC[C@H](NC(=O)[C@H](CCC(N)=O)NC(=O)[C@H](CCC(N)=O)NC(=O)[C@]1(C)CCCC=CCCCCCC[C@@](C)(NC(=O)[C@H](Cc2ccccc2)NC(C)=O)C(=O)N[C@@H](C)C(=O)N[C@@H](Cc2ccc(O)cc2)C(=O)N[C@@H](Cc2c[nH]c3ccccc23)C(=O)N[C@@H]([C@@H](C)O)C(=O)N[C@@H](C)C(=O)N[C@@H](CC(C)C)C(=O)N1)C(=O)N[C@@H](C(N)=O)C(C)C [compound 41] (Ac-F[R8]AYWTAL[S5]QQ[Nle][dV]-NH2; staple 2-9) ?
−909

Shift focus to the following entry.
Please look up its Molar Ellipticity Benign (222 in 0% TFE): CC(=O)N[C@@H](CC(C)C)C(=O)N[C@H](C(=O)N[C@@H](Cc1ccccc1)C(=O)N[C@]1(C)CCCCCCC=CCCC[C@@](C)(C(=O)N[C@@H](C)C(=O)N[C@@H](C)C(=O)N[C@@H](C)C(=O)N[C@H](C)C(N)=O)NC(=O)[C@H](CC(C)C)NC(=O)[C@H](CCC(N)=O)NC(=O)[C@H](C)NC(=O)[C@H](Cc2c[nH]c3ccccc23)NC(=O)[C@H](Cc2ccc(O)cc2)NC(=O)[C@H](C)NC1=O)[C@@H](C)O (single isomer, unassigned)
−213.2
